Listed here: items and their measured Kd.
# system-under-test: C5, P01031
# protocol-text: Kd (SPR)
I only need the number, in nM, no unit after it.

Some entries whose results are on file:
unnamed (protein) chain 1: QVQLVQSGAEVKKPGASVKVSCKASGYIFSNYWIQWVRQAPGQGLEWMGEILPGSGSTEYTENFKDRVTMTRDTSTSTVYMELSSLRSEDTAVYYCARYYYGDTPTIYFDYWGQGTLVTVSS chain 2: DIQMTQSPSSLSASVGDRVTITCGASENIYGALNWYQQKPGKAPKLLIYGATNLADGVPSRFSGSGSGTDFTLTISSLQPEDFATYYCQNVLNTPLTFGQGTKVEIK: 111
unnamed (protein) chain 1: QVQLVQSGAEVKKPGASVKVSCKASGYIFSNYWIQWVRQAPGQGLEWMGEILPGSGSTEYTENFKDRVTMTRDTSTSTVYMELSSLRSEDTAVYYCARLRYGDTPTIYFDYWGQGTLVTVSS chain 2: DIQMTQSPSSLSASVGDRVTITCGASENIYGALNWYQQKPGKAPKLLIYGATNLADGVPSRFSGSGSGTDFTLTISSLQPEDFATYYCQNVLNTPLTFGQGTKVEIK: 469
unnamed (protein) chain 1: QVQLVQSGAEVKKPGASVKVSCKASGYTFTSYWIQWVRQAPGQGLEWMGEIHPGSGYTEYTENFKDRVTMTRDTSTSTVYMELSSLRSEDTAVYYCARLRYGDTPIIYFDYWGQGTLVTVSS chain 2: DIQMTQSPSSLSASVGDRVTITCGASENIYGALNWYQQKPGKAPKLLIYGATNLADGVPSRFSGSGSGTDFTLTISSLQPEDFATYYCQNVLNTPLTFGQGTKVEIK: 3600
unnamed (protein) chain 1: QVQLVQSGAEVKKPGASVKVSCKASGYIFSNYWIQWVRQAPGQGLEWMGEILPGSGSTEYTENFKDRVTMTRDTSTSTVYMELSSLRSEDTAVYYCARDRFDVASGSSFDFWGQGTLVTVSS chain 2: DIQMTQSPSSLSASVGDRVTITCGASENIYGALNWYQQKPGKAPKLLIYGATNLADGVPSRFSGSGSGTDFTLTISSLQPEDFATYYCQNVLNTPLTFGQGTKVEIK: 325
unnamed (protein) chain 1: QVQLVQSGAEVKKPGASVKVSCKASGYTFTSYWIQWVRQAPGQGLEWMGEIHPGSGYTEYTENFKDRVTMTRDTSTSTVYMELSSLRSEDTAVYYCARYYYGDTPYIYFDYWGQGTLVTVSS chain 2: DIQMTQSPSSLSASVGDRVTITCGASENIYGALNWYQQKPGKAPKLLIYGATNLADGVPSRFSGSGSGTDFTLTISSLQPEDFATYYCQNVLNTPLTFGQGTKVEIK: 267

Tell me the measured Kd of unnamed (protein) chain 1: QVQLVQSGAEVKKPGASVKVSCKASGYIFSNYWIQWVRQAPGQGLEWMGEILPGSGSTEYTENFKDRVTMTRDTSTSTVYMELSSLRSEDTAVYYCARLYYGDTPYIYFDYWGQGTLVTVSS chain 2: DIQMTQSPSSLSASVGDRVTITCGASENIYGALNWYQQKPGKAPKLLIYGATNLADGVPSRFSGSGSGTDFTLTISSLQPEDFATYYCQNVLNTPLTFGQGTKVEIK , please. 492

Quick one: Kd for unnamed (protein) chain 1: QVQLVQSGAEVKKPGASVKVSCKASGYIFSNYWIQWVRQAPGQGLEWMGEILPGSGSTEYTENFKDRVTMTRDTSTSTVYMELSSLRSEDTAVYYCARYYWGDTPYIYFDYWGQGTLVTVSS chain 2: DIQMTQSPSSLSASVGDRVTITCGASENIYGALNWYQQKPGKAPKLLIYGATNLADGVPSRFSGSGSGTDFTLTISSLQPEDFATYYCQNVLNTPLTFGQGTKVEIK ? 204

Quick check: Kd of unnamed (protein) chain 1: QVQLVQSGAEVKKPGASVKVSCKASGYIFSNYWIQWVRQAPGQGLEWMGEILPGSGSTEYTENFKDRVTMTRDTSTSTVYMELSSLRSEDTAVYYCARYYYGDTPIIYFDYWGQGTLVTVSS chain 2: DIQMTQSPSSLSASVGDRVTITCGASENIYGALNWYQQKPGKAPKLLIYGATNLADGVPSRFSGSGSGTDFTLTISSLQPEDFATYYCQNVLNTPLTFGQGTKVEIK ? 126

Given the entry unnamed (protein) chain 1: QVQLVQSGAEVKKPGASVKVSCKASGYIFSNYWIQWVRQAPGQGLEWMGEILPGSGSTEYTENFKDRVTMTRDTSTSTVYMELSSLRSEDTAVYYCARLRWGDTPIIYFDYWGQGTLVTVSS chain 2: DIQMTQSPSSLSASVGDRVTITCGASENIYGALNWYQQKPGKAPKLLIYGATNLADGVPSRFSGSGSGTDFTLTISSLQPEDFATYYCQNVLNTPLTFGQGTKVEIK , report its measured Kd. 749

Look up Kd for this binder: unnamed (protein) chain 1: QVQLVQSGAEVKKPGASVKVSCKASGYIFSNYWIQWVRQAPGQGLEWMGEILPGSGSTEYTENFKDRVTMTRDTSTSTVYMELSSLRSEDTAVYYCARLRYGDTPYIYFDYWGQGTLVTVSS chain 2: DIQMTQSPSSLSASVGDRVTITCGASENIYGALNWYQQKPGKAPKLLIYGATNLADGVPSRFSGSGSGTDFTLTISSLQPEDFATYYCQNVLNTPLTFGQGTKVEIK 2510

Data origin, for the record: the FLAb antibody collection (doi:10.1101/2023.12.08.570889)
